What TGI was measured for each of the following?
Test system: UACC-257 melanoma
Assay: NCI tumour cell line growth inhibition, 48 h

Lab note: Nc1ccc(-c2ccc(-c3nc4ccccc4[nH]3)cc2)cc1 gave TGI of > 100 µM

Lookup result for COc1cc2cc(C(=O)O)[nH]c2cc1OCc1ccccc1 ; measured TGI: > 100 µM

Lab note: CN/N=C(\C)CC(=O)Nc1cccc(Cl)c1C gave TGI of > 100 µM

Measured TGI of Cn1cc(-c2ccc(CCOC3CCCCO3)cc2)c2c(C#N)cccc21 (stereo unspecified) : > 100 µM

Input O=C(O)[C@@H]1C[C@@H](O)CN1 . Output TGI: > 100 µM

# molecule Cc1cc(N2CCN(C)CC2)nc(NC2CCCC(Nc3ccnc4cc(Cl)ccc34)C2)n1 (stereo unspecified) ; its TGI = 3.93 µM

Please fill in: TGI reported for COc1cc(Cn2c3c(c4cc(O)ccc42)C(=O)c2ccccc2C3=O)cc(OC)c1 = > 100 µM

// recorded TGI for Cc1cccc(NC(=O)CC2C(=O)Nc3ccccc3S2(=O)=O)c1C (stereo unspecified) : > 100 µM

Reported TGI of CC(C)C1OCC(CO)CO1 (stereo unspecified) : > 100 µM

The reported TGI of the molecule COc1ccc(-c2nc3ccc(C)cc3o2)c(OC)c1 was 46.5 µM

# TGI of CS(=O)(=O)c1ccc(C(F)(F)F)cc1NC(=O)Nc1cnc(Oc2ccc(-c3cc(Cl)cnc3N)cc2)nc1 = 11.5 µM

The measured values listed here are drawn from PubChem BioAssay (NCI).
